Data provenance is patent US20240018123A1.

tested-target: Androgen receptor (AR) (Homo sapiens, UniProt P10275, T878A)
Construct: 5.5×10^5 LNCap cells were injected into each well of a 6-well plate; endogenous in cells; host or cells: LNCaP
Sequence (P10275 1-920 T878A): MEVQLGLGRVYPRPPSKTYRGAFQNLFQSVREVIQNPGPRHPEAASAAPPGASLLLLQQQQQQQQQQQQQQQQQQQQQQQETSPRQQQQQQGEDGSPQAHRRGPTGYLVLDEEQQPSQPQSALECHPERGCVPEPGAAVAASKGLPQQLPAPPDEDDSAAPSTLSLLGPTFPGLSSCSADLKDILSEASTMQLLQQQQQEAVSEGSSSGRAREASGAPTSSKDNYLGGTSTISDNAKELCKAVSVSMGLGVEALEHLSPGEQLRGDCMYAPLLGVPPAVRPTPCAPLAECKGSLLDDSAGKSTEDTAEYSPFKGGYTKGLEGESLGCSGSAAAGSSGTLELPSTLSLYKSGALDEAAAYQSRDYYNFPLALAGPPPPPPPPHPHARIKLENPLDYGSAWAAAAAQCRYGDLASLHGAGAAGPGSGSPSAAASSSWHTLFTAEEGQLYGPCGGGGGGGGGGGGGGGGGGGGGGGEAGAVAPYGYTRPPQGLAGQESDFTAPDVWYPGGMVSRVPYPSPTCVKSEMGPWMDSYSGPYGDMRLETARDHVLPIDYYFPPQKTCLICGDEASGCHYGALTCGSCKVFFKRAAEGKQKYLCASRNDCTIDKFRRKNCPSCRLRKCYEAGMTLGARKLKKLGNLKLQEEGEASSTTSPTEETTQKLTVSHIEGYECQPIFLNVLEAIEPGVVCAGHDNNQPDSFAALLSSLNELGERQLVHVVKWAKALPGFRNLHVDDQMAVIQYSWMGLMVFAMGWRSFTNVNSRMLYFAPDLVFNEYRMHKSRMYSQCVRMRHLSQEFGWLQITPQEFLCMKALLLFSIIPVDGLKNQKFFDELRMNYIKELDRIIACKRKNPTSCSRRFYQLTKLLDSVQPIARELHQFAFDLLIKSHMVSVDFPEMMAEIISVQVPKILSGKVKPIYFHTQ
protocol-summary: Assessment of AR proteolytic activity (Western blotting of LNCap cell lysates)
Format: cell-based
condition-summary: 24 hours of treatment, Western blotting quantified with Image J
property-measured: Degradation (1 μM treated in LNCaP, % AR remaining) (%)
Give bare numbers, in %.

Sample answers from the record:
compound="CC1(C)[C@H](NC(=O)c2ccc(C3CCN(CC4CCN(C(=O)C5CCN(c6ccc7nnn(C8CCC(=O)NC8=O)c(=O)c7c6)CC5)CC4)CC3)cc2)C(C)(C)[C@H]1Oc1ccc(C#N)c(Cl)c1 (stereo partly shown) [Example 52]" readout_units=% recorded_measurement=32.2
compound="CC1(C)C(NC(=O)c2ccc(C#CCC3CCN(c4ccc5nnn(C6CCC(=O)NC6=O)c(=O)c5c4)CC3)cc2)C(C)(C)C1Oc1ccc(C#N)c(Cl)c1 (stereo not shown) [Example 85]" readout_units=% recorded_measurement=21
compound="CC1(C)C(NC(=O)c2ccc(N3CCN(CC4CCN(C(=O)CN5CCN(c6ccc7nnn(C8CCC(=O)NC8=O)c(=O)c7c6)CC5)CC4)CC3)cc2)C(C)(C)C1Oc1ccc(C#N)c(Cl)c1 (stereo not shown) [Example 58]" readout_units=% recorded_measurement=11.4
compound="CC1(C)[C@H](NC(=O)c2ccc(OCCOCCOCCOCCOCCOCCCNc3cccc4nnn(C5CCC(=O)NC5=O)c(=O)c34)cc2)C(C)(C)[C@H]1Oc1ccc(C#N)c(Cl)c1 (single isomer, unassigned) [Example 4]" readout_units=% recorded_measurement=58
compound="CC1(C)C(NC(=O)c2ccc(N3CCN(CCCOC4CCN(c5ccc6nnn(C7CCC(=O)NC7=O)c(=O)c6c5)CC4)CC3)cc2)C(C)(C)C1Oc1ccc(C#N)c(Cl)c1 (stereo not shown) [Example 39]" readout_units=% recorded_measurement=2.1

State the recorded Degradation (1 μM treated in LNCaP, % AR remaining) for every item in the following list.
1. CC1(C)[C@H](NC(=O)c2ccc(N3CCN(CC4CCN(c5cccc6nnn(C7CCC(=O)NC7=O)c(=O)c56)CC4)CC3)cc2)C(C)(C)[C@H]1Oc1ccc(C#N)c(Cl)c1 (stereo partly shown) [Example 7]
2. CC1(C)[C@H](NC(=O)c2ccc(N3CC[C@H](CN4CC5(CCN(c6ccc7c(=O)n(C8CCC(=O)NC8=O)nnc7c6)CC5)C4)C3)nc2)C(C)(C)[C@H]1Oc1ccc(C#N)c(Cl)c1 (stereo partly shown) [Example 185]
3. CC1(C)C(NC(=O)c2cnc(N3CCN(CC4CCN(c5ccc6nnn(C7CCC(=O)NC7=O)c(=O)c6c5)CC4)CC3)cn2)C(C)(C)C1Oc1ccc(C#N)c(Cl)c1 (stereo not shown) [Example 79]
4. CC1(C)C(NC(=O)c2ccc(N3CCN(C=C4CCN(c5ccc6nnn(C7CCC(=O)NC7=O)c(=O)c6c5)CC4)CC3)cc2)C(C)(C)C1Oc1ccc(C#N)c(Cl)c1 (stereo not shown) [Example 64]
5. CC1(C)[C@H](NC(=O)c2ccc(N3CCN(C(=O)C4CCN(c5ccc6nnn(C7CCC(=O)NC7=O)c(=O)c6c5)CC4)CC3)cc2)C(C)(C)[C@H]1Oc1ccc(C#N)c(Cl)c1 (stereo partly shown) [Example 42]

Result:
1. 24.3
2. 10
3. 45
4. 56
5. 10

###

Exercise: state measured Degradation (1 μM treated in LNCaP, % AR remaining) for each of the compounds provided.
tested-target: Androgen receptor (AR) (Homo sapiens, UniProt P10275, T878A)
Construct: 5.5×10^5 LNCap cells were injected into each well of a 6-well plate; endogenous in cells; host or cells: LNCaP
Sequence (P10275 1-920 T878A): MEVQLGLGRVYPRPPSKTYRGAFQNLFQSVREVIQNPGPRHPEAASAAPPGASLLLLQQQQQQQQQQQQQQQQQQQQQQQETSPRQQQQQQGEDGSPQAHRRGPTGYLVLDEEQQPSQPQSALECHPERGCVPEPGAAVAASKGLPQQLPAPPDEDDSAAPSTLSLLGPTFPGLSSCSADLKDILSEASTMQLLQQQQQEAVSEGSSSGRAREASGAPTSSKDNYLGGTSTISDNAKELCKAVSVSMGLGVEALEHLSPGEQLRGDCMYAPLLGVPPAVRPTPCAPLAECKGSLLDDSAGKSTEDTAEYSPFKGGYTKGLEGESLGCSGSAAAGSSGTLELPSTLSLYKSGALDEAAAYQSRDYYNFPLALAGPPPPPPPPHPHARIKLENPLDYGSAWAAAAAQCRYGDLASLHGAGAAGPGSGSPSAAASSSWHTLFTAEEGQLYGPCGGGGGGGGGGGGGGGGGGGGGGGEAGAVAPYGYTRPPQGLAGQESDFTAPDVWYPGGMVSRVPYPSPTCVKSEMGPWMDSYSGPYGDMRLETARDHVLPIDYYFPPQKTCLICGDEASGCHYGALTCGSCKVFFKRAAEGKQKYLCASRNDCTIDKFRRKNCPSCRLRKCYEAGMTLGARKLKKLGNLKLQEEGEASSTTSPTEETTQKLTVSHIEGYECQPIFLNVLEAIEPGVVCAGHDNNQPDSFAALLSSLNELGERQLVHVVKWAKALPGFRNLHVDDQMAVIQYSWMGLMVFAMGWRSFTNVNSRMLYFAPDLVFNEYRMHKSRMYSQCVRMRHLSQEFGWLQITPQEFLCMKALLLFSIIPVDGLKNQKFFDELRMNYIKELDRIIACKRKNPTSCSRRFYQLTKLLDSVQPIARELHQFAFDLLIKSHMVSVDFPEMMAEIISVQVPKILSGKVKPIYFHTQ
protocol-summary: Assessment of AR proteolytic activity (Western blotting of LNCap cell lysates)
Format: cell-based
condition-summary: 24 hours of treatment, Western blotting quantified with Image J
Numbers only, in %.

compound="N#Cc1ccc(O[C@H]2CC[C@@H](NC(=O)c3ccc(N4CCN(CCCOc5ccc6nnn(C7CCC(=O)NC7=O)c(=O)c6c5)CC4)nc3)CC2)cc1Cl (stereo partly drawn)" recorded_measurement=36
compound="CC1(C)C(NC(=O)c2ccc(OCCOCCOCCOCCOCCOCCCCNC(=O)C3CN(c4ccc5nnn(C6CCC(=O)NC6=O)c(=O)c5c4)C3)cc2)C(C)(C)C1Oc1ccc(C#N)c(Cl)c1 (stereo not drawn)" recorded_measurement=12.6

State the recorded Degradation (1 μM treated in LNCaP, % AR remaining) for every item in the following list.
1. CC1(C)C(NC(=O)c2ccc(N3CCN(CCCCCOc4ccc5nnn(C6CCC(=O)NC6=O)c(=O)c5c4)CC3)nc2)C(C)(C)C1Oc1ccc(C#N)c(Cl)c1 (stereo not drawn)
2. CC1(C)C(NC(=O)c2ccc(N3CCN(C(=O)C4CN(c5ccc6nnn(C7CCC(=O)NC7=O)c(=O)c6c5)C4)CC3)cc2)C(C)(C)C1Oc1ccc(C#N)c(Cl)c1 (stereo not drawn)
3. N#Cc1ccc(OC2CCC(NC(=O)c3ccc(N4CCC(CN5CCN(c6ccc7nnn(C8CCC(=O)NC8=O)c(=O)c7c6)CC5)CC4)nc3)CC2)cc1Cl (stereo not drawn)
4. CC1(C)C(NC(=O)c2ccc(OCCOCCOCCOCCOCCOCCCCNC(=O)C3CCN(c4ccc5nnn(C6CCC(=O)NC6=O)c(=O)c5c4)CC3)cc2)C(C)(C)C1Oc1ccc(C#N)c(Cl)c1 (stereo not drawn)
5. CC1(C)[C@H](NC(=O)c2ccc(N3CCN(CC4CCN(C(=O)C5CN(c6ccc7nnn(C8CCC(=O)NC8=O)c(=O)c7c6)C5)CC4)CC3)cc2)C(C)(C)[C@H]1Oc1ccc(C#N)c(Cl)c1 (stereo partly drawn)
6. CC1(C)[C@H](NC(=O)c2ccc(N3CCN(C(=O)CNc4ccc5nnn(C6CCC(=O)NC6=O)c(=O)c5c4)CC3)cc2)C(C)(C)[C@H]1Oc1ccc(C#N)c(Cl)c1 (stereo partly drawn)

Result:
10
33.6
31
13.6
7
19.7
